- test-target: Lymphokine-activated killer T-cell-originated protein kinase (Homo sapiens)
- Sequence (Q96KB5 whole entry): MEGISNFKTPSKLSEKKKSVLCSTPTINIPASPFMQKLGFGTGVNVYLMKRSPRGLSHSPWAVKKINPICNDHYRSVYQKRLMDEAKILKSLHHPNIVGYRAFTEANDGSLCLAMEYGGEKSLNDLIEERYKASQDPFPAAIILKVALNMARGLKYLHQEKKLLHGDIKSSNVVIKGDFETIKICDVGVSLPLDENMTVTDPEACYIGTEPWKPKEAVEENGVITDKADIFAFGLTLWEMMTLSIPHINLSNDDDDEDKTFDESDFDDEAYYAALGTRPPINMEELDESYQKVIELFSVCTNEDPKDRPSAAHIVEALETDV
- assay-details: Kinase Assay
- run-parameters: pH 7.4; 25 °C
Parameter IC50: see the listing below.

[
  {
    "compound": "N#Cc1ccc2[nH]c(=O)c3sccc3c2c1-c1ccc(CN)cc1",
    "IC50 / nM": 13
  },
  {
    "compound": "CCC(N)c1ccc(-c2c(O)ccc3[nH]c(=O)c4sccc4c23)cc1 (stereo not drawn)",
    "IC50 / nM": 0.82
  },
  {
    "compound": "O=c1[nH]c2ccc(O)c(-c3ccc(S(=O)(=O)NCCCl)cc3)c2c2ccsc12",
    "IC50 / nM": 23
  },
  {
    "compound": "COc1ccc2[nH]c(=O)c3sccc3c2c1-c1ccc(C(C)CN)cc1 (stereo not drawn)",
    "IC50 / nM": 3.2
  },
  {
    "compound": "C[C@H](CN)c1ccc(-c2c(O)ccc3[nH]c(=O)c4sccc4c23)cc1",
    "IC50 / nM": 1.3
  },
  {
    "compound": "CCNCc1ccc(-c2c(O)ccc3[nH]c(=O)c4sccc4c23)cc1",
    "IC50 / nM": 2
  },
  {
    "compound": "N#CCCc1ccc(-c2c(O)ccc3[nH]c(=O)c4sccc4c23)cc1",
    "IC50 / nM": 3.2
  },
  {
    "compound": "NCCc1ccc(-c2c(O)cc(Cl)c3[nH]c(=O)c4sccc4c23)cc1Cl",
    "IC50 / nM": 3.9
  }
]
